System: OCTs/OCTNs
test: Bidirectional transport in MDCK cell monolayers with selective transporter inhibitors or substrates
Type: in vitro ADME, canine
condition.details: dog, with TEA 5 mM, + TEA 5 mM (OCTs/OCTNs)
Reported Papp A→B at 120 min, 2 μM values follow for various compounds
The reply must contain the numeric value and, after it, the unit.

# Papp A→B at 120 min, 2 μM lookup, item COc1ccc2c3c([nH]c2c1)C(C)=NCC3 16.5 ×10⁻⁶ cm/s

Now for the compound whose Papp A→B at 120 min, 2 μM we want.
# Papp A→B at 120 min, 2 μM lookup, item COc1ccc2c(c1)[nH]c1c(C)nccc12 4.15 ×10⁻⁶ cm/s

* * *

Tested on: PEPT1
test: Bidirectional transport in MDCK cell monolayers with selective transporter inhibitors or substrates
Assay type: in vitro ADME, canine
condition.details: dog, with Gly-Sar 10 mM, + Gly-Sar 10 mM (PEPT1)
measured.metric: Papp B→A at 120 min, 2 μM (×10⁻⁶ cm/s)
Report the value in ×10⁻⁶ cm/s with no unit label.

Which Papp B→A at 120 min, 2 μM is reported with PEPT1 for this entry: COc1ccc2c3c([nH]c2c1)C(C)=NCC3 [Harmaline] ? 21.4

* * *

test: Urinary and fecal excretion in rats
Assay type: in vivo, Sprague-Dawley rats
condition.details: after oral harmaline 40.0 mg/kg, within 72 h
measured.metric: Cumulative excretion of the analyte, SUM of urine and feces (%)
Report the value in % with no unit label.

Below are worked cases with known answers.
# Cumulative excretion of the analyte, SUM of urine and feces lookup, item Cc1[nH]ccc2c1[nH]c1cc(=O)ccc12 [Harmol] 2.35

# Cumulative excretion of the analyte, SUM of urine and feces lookup, item CC1=NCCc2c1[nH]c1cc(O)ccc21 [Harmalol] 4.18

# Cumulative excretion of the analyte, SUM of urine and feces lookup, item COc1ccc2c(c1)[nH]c1c(C)nccc12 [Harmine] 0.07

Now for the compound whose Cumulative excretion of the analyte, SUM of urine and feces we want.
# Cumulative excretion of the analyte, SUM of urine and feces lookup, item COc1ccc2c3c([nH]c2c1)C(C)=NCC3 [Harmaline] 5.05

* * *

Tested on: ATP (adenosine triphosphate)
test: in vitro
condition.details: human, Caco-2, ER, Caco-2, 2 μM, + NaN3 10 mM (ATP)
measured.metric: efflux ratio
Simply state the number, no unit and no words.

# efflux ratio lookup, item COc1ccc2c3c([nH]c2c1)C(C)=NCC3 1.15

* * *

test: Urinary and fecal excretion in rats
Assay type: in vivo, Sprague-Dawley rats
condition.details: after oral harmaline 40.0 mg/kg, 48 h
measured.metric: Cumulative excretion in urine (%) of the analyte
Report the value in % with no unit label.

Below are worked cases with known answers.
# Cumulative excretion in urine (%) of the analyte lookup, item CC1=NCCc2c1[nH]c1cc(O)ccc21 [Harmalol] 2.03

# Cumulative excretion in urine (%) of the analyte lookup, item COc1ccc2c(c1)[nH]c1c(C)nccc12 [Harmine] 0.04

# Cumulative excretion in urine (%) of the analyte lookup, item COc1ccc2c3c([nH]c2c1)C(C)=NCC3 [Harmaline] 4.71

Now for the molecule whose Cumulative excretion in urine (%) of the analyte we want.
# Cumulative excretion in urine (%) of the analyte lookup, item Cc1[nH]ccc2c1[nH]c1cc(=O)ccc12 [Harmol] 0.50
